# Test system: HepG2-ACTB-RAB5A
# Assay: phenotypically active (imaging signature differs from DMSO and reproducible) at any of 0.3-9 uM (binary (1 = active, 0 = inactive)); higher = active
# Condition Summary: treatment time: 24 h
Where a name gives a salt, the structure may show the parent alone.
Listing: phenotypically active of selected compounds
Please reply with the number alone, leaving off any unit.

Given item O=C1CCc2ccc(OCCCCN3CCN(c4cccc(Cl)c4Cl)CC3)cc2N1 [aripiprazole] , the value recorded as its phenotypically active is 0

So for Cc1nc(=O)c2c([nH]1)CCSC2 , the logged phenotypically active turned out to be 0

***
Entry Nc1ncnc2c1c(COc1cccc(Cl)c1)nn2C1CCOCC1 ; phenotypically active = 0

The compound identified as CC(C)NCCCC1(C(N)=O)c2ccccc2-c2ccccc21 [indecainide] registered its phenotypically active at 0

Value of measured phenotypically active for the entry COc1cc2c(cc1NS(=O)(=O)c1ccc(Br)cc1C)n(C)c(=O)n2C : 1

Looking up NC(=O)N1c2ccccc2C=Cc2ccccc21 [carbamazepine] , I found its phenotypically active recorded as 0

Reported phenotypically active of Cc1cc(C(=O)Nc2cccc(C(=O)Nc3cccc(C(F)(F)F)c3)c2)on1 : 0

phenotypically active in this record for O=C(O)c1ccc(O)c2ncccc12 : 0

# phenotypically active of CC[C@@H]1C(=O)OC[C@@H]1Cc1cncn1C [Pilocarpine hydrochloride] = 0

Note to self: phenotypically active recorded for Cc1cc(CS(=O)(=O)c2ccccc2)cc(OCc2ccc(CN3CCC[C@@H]3CO)cc2)c1 [PF 543 hydrochloride] was 1

Value of phenotypically active reported for the compound O=C(CCc1ccc(O)cc1)c1c(O)cc(O)cc1O[C@@H]1O[C@H](CO)[C@@H](O)[C@H](O)[C@H]1O [Phloridzin] is 0

// field: phenotypically active; key: CC[C@H](CO)Nc1nc(Nc2cccc(-c3ccccn3)c2)c2ncn(C(C)C)c2n1 [(R)-DRF053 dihydrochloride] ; value = 1

====

The reader will find reported lowest phenotypically active concentration values listed item by item below.
# System: A549-GM130-SQSTM1
# Assay: lowest phenotypically active concentration; higher = less potent
# Condition Summary: treatment time: 24 h

Item: O=C(c1cccc(Cl)c1F)N1CCN(Cc2cccc(Nc3nccs3)n2)CC1 | lowest phenotypically active concentration: 1 µM

// lowest phenotypically active concentration lookup, compound = COc1ccccc1OCCNCC(O)COc1cccc2[nH]c3ccccc3c12 (stereo not given) [Carvedilol] , result: 9 µM

Entry COc1ccc(-n2c(SCCCN3C(=O)c4cccc5cccc(c45)C3=O)nnc2-c2ccncc2)cc1 — recorded lowest phenotypically active concentration = 3 µM

// lowest phenotypically active concentration value for CCN(CC)CCNc1ccc(CO)c2sc3ccccc3c(=O)c12 [hycanthone] : 9 µM

Notebook: CCCOc1ccn2c(C(C)=O)cc(-c3ccccc3S(C)(=O)=O)c2c1 , lowest phenotypically active concentration read as 9 µM

Others:
lowest phenotypically active concentration recorded for this compound, O=S(=O)(c1cccc2cnccc12)N1CCCNCC1 [fasudil] , is 9 µM

Field lowest phenotypically active concentration (entry COCC(=O)O[C@]1(CCN(C)CCCc2nc3ccccc3[nH]2)CCc2cc(F)ccc2[C@@H]1C(C)C [mibefradil] ) reads 3 µM

// lowest phenotypically active concentration value for N#C/C(=C(/N)Sc1ccc(N)cc1)c1ccccc1C(F)(F)F : 3 µM

// CN(C)c1ccc(C(=O)NCCCCCCC(=O)NO)cc1 : lowest phenotypically active concentration value = 1 µM

Record Clc1ccc(C2(c3ccc(-c4cn[nH]c4)cc3)CCNCC2)cc1 . Reported lowest phenotypically active concentration: ≤ 0.3 µM
